- assay name: Ca2+ sensitivity curves of reconstituted photoproteins (L/Lmax vs free Ca2+)
- Format: biochemical
- condition: CLZ-f; at pCa 6.5; FIG. 2
endpoint: affinity to calcium group relative to Aeq-wt

{"molecule": "A123D: apoaequorin mutant, alanine 123 replaced by aspartic acid (SEQ ID NO:10) (protein, mutant aequorin) SKLTSDFDNPRWIGRHKHMFNFLDVNHNGKISLDEMVYKASDIVINNLGATPEQAKRHKDAVEAFFGGAGMKYGVETDWPAYIEGWKKLATDELEKYAKNEPTLIRIWGDALFDIVDKDQNGDITLDEWKAYTKAAGIIQSSEDCEETFRVCDIDESGQLDVDEMTRQHLGFWYTMDPACEKLYGGAVP", "measured value": "medium-high to high"}
{"molecule": "A179T: apoaequorin mutant, alanine 179 replaced by threonine (SEQ ID NO:11) (protein, mutant aequorin) SKLTSDFDNPRWIGRHKHMFNFLDVNHNGKISLDEMVYKASDIVINNLGATPEQAKRHKDAVEAFFGGAGMKYGVETDWPAYIEGWKKLATDELEKYAKNEPTLIRIWGDALFDIVDKDQNGAITLDEWKAYTKAAGIIQSSEDCEETFRVCDIDESGQLDVDEMTRQHLGFWYTMDPTCEKLYGGAVP", "measured value": "medium-high to high"}
{"molecule": "Q159T: apoaequorin mutant, glutamine 159 replaced by threonine (SEQ ID NO:6) (protein, mutant aequorin) SKLTSDFDNPRWIGRHKHMFNFLDVNHNGKISLDEMVYKASDIVINNLGATPEQAKRHKDAVEAFFGGAGMKYGVETDWPAYIEGWKKLATDELEKYAKNEPTLIRIWGDALFDIVDKDQNGAITLDEWKAYTKAAGIIQSSEDCEETFRVCDIDESGTLDVDEMTRQHLGFWYTMDPACEKLYGGAVP", "measured value": "medium-high to high"}
{"molecule": "S157A: aequorin single mutant S157A, low calcium affinity (protein) SKLTSDFDNPRWIGRHKHMFNFLDVNHNGKISLDEMVYKASDIVINNLGATPEQAKRHKDAVEAFFGGAGMKYGVETDWPAYIEGWKKLATDELEKYAKNEPTLIRIWGDALFDIVDKDQNGAITLDEWKAYTKAAGIIQSSEDCEETFRVCDIDEAGQLDVDEMTRQHLGFWYTMDPACEKLYGGAVP", "measured value": "low"}
{"molecule": "Q140R: aequorin single mutant Q140R, low calcium affinity (protein) SKLTSDFDNPRWIGRHKHMFNFLDVNHNGKISLDEMVYKASDIVINNLGATPEQAKRHKDAVEAFFGGAGMKYGVETDWPAYIEGWKKLATDELEKYAKNEPTLIRIWGDALFDIVDKDQNGAITLDEWKAYTKAAGIIRSSEDCEETFRVCDIDESGQLDVDEMTRQHLGFWYTMDPACEKLYGGAVP", "measured value": "low"}

Source: patent US20180319855A1
